Biological target: ROCK1 (Homo sapiens, UniProt Q13464)
Sequence (Q13464 whole entry): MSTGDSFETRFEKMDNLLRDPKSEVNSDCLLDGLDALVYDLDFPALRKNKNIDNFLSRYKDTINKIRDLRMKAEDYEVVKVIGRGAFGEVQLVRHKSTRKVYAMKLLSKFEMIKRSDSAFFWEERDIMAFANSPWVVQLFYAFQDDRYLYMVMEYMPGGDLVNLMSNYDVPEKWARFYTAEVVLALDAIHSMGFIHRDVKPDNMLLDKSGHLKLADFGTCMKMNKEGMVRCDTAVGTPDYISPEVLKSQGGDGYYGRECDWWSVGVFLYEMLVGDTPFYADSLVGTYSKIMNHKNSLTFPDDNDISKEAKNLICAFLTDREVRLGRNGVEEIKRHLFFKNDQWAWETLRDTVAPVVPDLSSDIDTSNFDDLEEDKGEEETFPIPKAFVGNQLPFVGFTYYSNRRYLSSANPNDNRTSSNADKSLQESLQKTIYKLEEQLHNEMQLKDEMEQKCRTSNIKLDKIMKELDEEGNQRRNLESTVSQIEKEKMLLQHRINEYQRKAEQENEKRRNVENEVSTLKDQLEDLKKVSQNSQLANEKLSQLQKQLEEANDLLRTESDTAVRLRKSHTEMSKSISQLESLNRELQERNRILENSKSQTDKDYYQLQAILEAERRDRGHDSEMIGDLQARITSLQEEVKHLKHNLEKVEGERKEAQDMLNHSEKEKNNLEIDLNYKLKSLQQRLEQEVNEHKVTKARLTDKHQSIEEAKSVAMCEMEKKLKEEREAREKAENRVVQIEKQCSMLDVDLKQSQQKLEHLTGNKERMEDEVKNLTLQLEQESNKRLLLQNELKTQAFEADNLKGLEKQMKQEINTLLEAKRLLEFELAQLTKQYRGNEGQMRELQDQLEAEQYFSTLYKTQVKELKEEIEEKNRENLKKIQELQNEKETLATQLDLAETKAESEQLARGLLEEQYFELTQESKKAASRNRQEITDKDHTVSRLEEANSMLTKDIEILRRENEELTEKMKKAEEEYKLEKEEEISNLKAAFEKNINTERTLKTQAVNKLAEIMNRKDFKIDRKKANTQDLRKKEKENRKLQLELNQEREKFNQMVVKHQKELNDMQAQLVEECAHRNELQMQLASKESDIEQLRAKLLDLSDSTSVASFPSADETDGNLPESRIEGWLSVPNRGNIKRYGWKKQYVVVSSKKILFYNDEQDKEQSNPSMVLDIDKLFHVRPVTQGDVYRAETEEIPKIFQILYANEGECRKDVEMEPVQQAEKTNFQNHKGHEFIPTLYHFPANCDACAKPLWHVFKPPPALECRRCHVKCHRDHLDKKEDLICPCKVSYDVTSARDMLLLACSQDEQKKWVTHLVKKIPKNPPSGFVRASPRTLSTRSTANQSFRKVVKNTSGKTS
Assay: In vitro inhibitory activity assay ROCK1 (Method B, ADP-Glo, 200 μM ATP)
Format: biochemical
Conditions: ATP 200 μM, read-out: Method B ROCK 1 (Ki)
Method: In Vitro Inhibitory Activity Assay Description ROCK1 and ROCK2 The effectiveness of compounds of the present invention to inhibit Rho kinase activity can be determined in a 10 μl assay containing 40 mM Tris pH7.5, 20 mM MgCl2 0.1 mg/mL BSA, 50 μM DTT and 2.5 μM peptide substrate (Myelin Basic Protein) using an ADP-Glo kit (Promega). Compounds were dissolved in DMSO such that the final concentration of DMSO was 1% in the assay. […] The luminescent signal was measured on a luminometer. […]
quantity-kind: Ki

Measured Ki, CNC(=O)c1cccc(CNc2ncc(-c3cnco3)c3c2CCO3)c1 [Example B, reference compound] : > 30 nM

Reported Ki ( O=C(NCCCF)c1cccc(CNc2ncc(-c3cn[nH]c3)c3c2CCO3)c1 ) = 3 to 30 nM

CC1(C)CC(NC(=O)c2cccc(CNc3ncc(-c4cn[nH]c4)c4c3CCO4)c2)CO1 (stereo not shown) yielded Ki of 3 to 30 nM

Ki reported for this molecule O=C(NCC1CC1)c1cccc(CNc2ncc(-c3cn[nH]c3)c3c2CCO3)c1 : 3 to 30 nM
